These data points were gathered from ChEMBL document CHEMBL1155883.

# Tested on: Human immunodeficiency virus 1
# assay.protocol: Resistance index, ratio of ID50 for reverse transcriptase L100I mutant to IC50 for wild-type HIV1 reverse transcriptase
Output met for records whose Ratio is lower than 100, not met for records at or above 100.

[[record]]
compound = "Cc1c(Cc2c(Cl)cccc2Cl)nc(SCC(=O)c2ccccc2)[nH]c1=O"
experimental_system = "Human immunodeficiency virus 1"
discrete_label = "met"

[[record]]
compound = "CC(C)c1c(Cc2c(F)cccc2Cl)nc(SCC(=O)c2ccccc2)[nH]c1=O"
experimental_system = "Human immunodeficiency virus 1"
discrete_label = "not met"

[[record]]
compound = "CCc1c(Cc2c(F)cccc2Cl)nc(SCC(=O)c2ccc(OC)cc2)[nH]c1=O"
experimental_system = "Human immunodeficiency virus 1"
discrete_label = "not met"

[[record]]
compound = "Cc1c(Cc2c(F)cccc2Cl)nc(SCC(=O)c2ccccc2)[nH]c1=O"
experimental_system = "Human immunodeficiency virus 1"
discrete_label = "not met"

[[record]]
compound = "CCc1c(Cc2c(Cl)cccc2Cl)nc(SCC(=O)c2ccc(OC)cc2)[nH]c1=O"
experimental_system = "Human immunodeficiency virus 1"
discrete_label = "not met"

[[record]]
compound = "CCC(C)c1c(Cc2c(F)cccc2Cl)nc(SCC(=O)c2ccc(OC)cc2)[nH]c1=O (stereo not given)"
experimental_system = "Human immunodeficiency virus 1"
discrete_label = "not met"

[[record]]
compound = "Cc1ccnc2c1NC(=O)c1cccnc1N2C1CC1 [NEVIRAPINE]"
experimental_system = "Human immunodeficiency virus 1"
discrete_label = "met"

[[record]]
compound = "CC(C)c1c(Cc2c(F)cccc2F)nc(SCC(=O)c2ccc(F)cc2)[nH]c1=O"
experimental_system = "Human immunodeficiency virus 1"
discrete_label = "met"

[[record]]
compound = "CC(C)c1c(Cc2c(F)cccc2F)nc(SCC(=O)c2ccccc2)[nH]c1=O"
experimental_system = "Human immunodeficiency virus 1"
discrete_label = "not met"

[[record]]
compound = "COc1ccc(C(=O)CSc2nc(Cc3c(F)cccc3Cl)c(C)c(=O)[nH]2)cc1"
experimental_system = "Human immunodeficiency virus 1"
discrete_label = "not met"


* * *

# assay.protocol: Cytotoxicity against human MT4 cells by MTT assay
# Type: cell-based
Each record here notes measured CC50.
parameter.measured: CC50

[[record]]
structure_notation = "O=C(CSc1nc(Cc2c(F)cccc2Cl)cc(=O)[nH]1)c1ccc(F)cc1"
parameter_measured = "CC50"
result = "> 61 µM"

[[record]]
structure_notation = "COc1ccc(C(=O)CSc2nc(Cc3c(F)cccc3F)c(C)c(=O)[nH]2)cc1"
parameter_measured = "CC50"
result = "> 60 µM"

[[record]]
structure_notation = "Cc1c(Cc2c(Cl)cccc2Cl)nc(SCC(=O)c2ccccc2)[nH]c1=O"
parameter_measured = "CC50"
result = "> 60 µM"

[[record]]
structure_notation = "Cc1c(Cc2c(F)cccc2F)nc(SCc2ccncc2)[nH]c1=O"
parameter_measured = "CC50"
result = "> 70 µM"

[[record]]
structure_notation = "COc1ccc(C(=O)CSc2nc(Cc3c(F)cccc3Cl)c(C(C)C)c(=O)[nH]2)cc1"
parameter_measured = "CC50"
result = "> 11 µM"


* * *

# System: Human immunodeficiency virus 1
# assay.protocol: Resistance index, ratio of ID50 for reverse transcriptase K103N mutant to IC50 for wild-type HIV1 sreverse transcriptase
parameter.measured: Ratio

[[record]]
structure_notation = "O=C(CSc1nc(Cc2c(Cl)cccc2Cl)cc(=O)[nH]1)c1ccccc1"
parameter_measured = "Ratio"
number = 308

[[record]]
structure_notation = "CC(C)c1c(Cc2c(F)cccc2F)nc(SCC(=O)c2ccccc2)[nH]c1=O"
parameter_measured = "Ratio"
number = 198

[[record]]
structure_notation = "COc1ccc(C(=O)CSc2nc(Cc3c(F)cccc3Cl)c(C)c(=O)[nH]2)cc1"
parameter_measured = "Ratio"
number = 150

[[record]]
structure_notation = "COc1ccc(C(=O)CSc2nc(Cc3c(F)cccc3F)c(C(C)C)c(=O)[nH]2)cc1"
parameter_measured = "Ratio"
number = 1440

[[record]]
structure_notation = "COc1ccc(C(=O)CSc2nc(Cc3c(Cl)cccc3Cl)cc(=O)[nH]2)cc1"
parameter_measured = "Ratio"
number = 694

[[record]]
structure_notation = "COc1ccc(CCSc2nc(Cc3c(Cl)cccc3Cl)c(C)c(=O)[nH]2)cc1"
parameter_measured = "Ratio"
number = 123

[[record]]
structure_notation = "O=C(CSc1nc(Cc2c(Cl)cccc2Cl)cc(=O)[nH]1)c1ccc(F)cc1"
parameter_measured = "Ratio"
number = 46

[[record]]
structure_notation = "Cc1c(Cc2c(F)cccc2F)nc(SCC(=O)c2ccc(F)cc2)[nH]c1=O"
parameter_measured = "Ratio"
number = 29

[[record]]
structure_notation = "O=C(CSc1nc(Cc2c(F)cccc2Cl)cc(=O)[nH]1)c1ccccc1"
parameter_measured = "Ratio"
number = 1000

[[record]]
structure_notation = "CC(C)c1c(Cc2c(F)cccc2Cl)nc(SCC(=O)c2ccccc2)[nH]c1=O"
parameter_measured = "Ratio"
number = 4500

